- assay.name: Volume of distribution at steady state in overnight fasted Sprague-Dawley rat at 5 mg/kg, iv measured upto 24 hrs
- Type: ADME, organism-based
- particulars: in vivo, read-out: Vdss
property: Vd

Ask: Hello, please tell me recorded Vd for this one: `COc1cc(F)cc(C(=O)c2cc(C)c(Oc3ccc4c(O)c(C(=O)NCC(=O)O)nc(OC)c4c3)c(C)c2)c1`
Result: 0.72 L/kg

----------
- assay.name: Microsomal stability in rat liver microsomes assessed as intrinsic clearance at 1 uM incubated for 60 mins by HPLC-MS/MS analysis
- Type: ADME, Microsome
- particulars: read-out: CLH
property: CLint scaled at 1 µM

Ask: Hello, please tell me recorded CLint scaled at 1 µM for this one: `COc1cc(F)cc(C(=O)c2cc(C)c(Oc3ccc4c(O)c(C(=O)NCC(=O)O)nc(OC)c4c3)c(C)c2)c1`
Result: < 45.5 mL/min/kg
